Experiment: in vitro
Conditions: Nanoclick permeability assay EC50
Positions of bridges follow the written chain, without caps; N, C: chain ends. Non-standard residues stand in square brackets, D forms with d. Residues, ends and D or L forms follow the SMILES beside them. Lys(N3) = [N-]=[N+]=NCCCC[C@H](N)C(=O)O; R8 = C=CCCCCCC[C@@](C)(N)C(=O)O; Cba = N[C@@H](CC1CCC1)C(=O)O; S5 = C=CCCC[C@](C)(N)C(=O)O; βAla = NCCC(=O)O
Kindly apply the following: criterion met if cell entry EC50 is less than 200 nM, criterion not met in every other case.

Take a look at these entries with their results.
| Compound | Class Label |
| --- | --- |
| CC(=O)N[C@@H](CCCCN=[N+]=[N-])C(=O)NCCC(=O)N[C@@H](CC(C)C)C(=O)N[C@H](C(=O)N[C@@H](Cc1ccccc1)C(=O)N[C@]1(C)CCCCCCC=CCCC[C@@](C)(C(=O)N[C@@H](CO)C(=O)N[C@@H](C)C(=O)N[C@@H](C)C(N)=O)NC(=O)[C@H](CC2CCC2)NC(=O)[C@H](CCC(=O)O)NC(=O)[C@H](C)NC(=O)[C@H](Cc2c[nH]c3ccccc23)NC(=O)[C@H](Cc2ccc(O)cc2)NC(=O)[C@H](CCC(=O)O)NC1=O)[C@@H](C)O | criterion not met |
| CC(=O)N[C@H](C(=O)N[C@@H](CO)C(=O)N[C@@H](Cc1ccccc1)C(=O)N[C@]1(C)CCCCCCC=CCCC[C@@](C)(C(N)=O)NC(=O)[C@H](CC(C)C)NC(=O)[C@H](CC(C)C)NC(=O)[C@H](C)NC(=O)[C@H](Cc2c[nH]c3ccccc23)NC(=O)[C@H](Cc2ccc(O)cc2)NC(=O)[C@H](CCC(=O)O)NC1=O)[C@@H](C)O | criterion not met |

Hi there! Is cell entry EC50 for CC(=O)N[C@@H](CCCCN=[N+]=[N-])C(=O)NCCC(=O)N[C@@H](CC(C)C)C(=O)N[C@H](C(=O)N[C@@H](Cc1ccccc1)C(=O)N[C@]1(C)CCCCCCC=CCCC[C@@](C)(C(N)=O)NC(=O)[C@H](CC2CCC2)NC(=O)[C@H](CCC(N)=O)NC(=O)[C@H](C)NC(=O)[C@H](Cc2c[nH]c3ccccc23)NC(=O)[C@H](Cc2ccc(O)cc2)NC(=O)[C@H](CCC(=O)O)NC1=O)[C@@H](C)O [MP-326] (Ac-[Lys(N3)][βAla]LTF[R8]EYWAQ[Cba][S5]-NH2; staple 6-13) below 200 nM, do you know? criterion not met

###

Assay: EPSA
Assay type: physicochemical
Conditions: EPSA
Positions of bridges follow the written chain, without caps; N, C: chain ends. Non-standard residues stand in square brackets, D forms with d. Residues, ends and D or L forms follow the SMILES beside them. Lys(N3) = [N-]=[N+]=NCCCC[C@H](N)C(=O)O; R8 = C=CCCCCCC[C@@](C)(N)C(=O)O; Cba = N[C@@H](CC1CCC1)C(=O)O; S5 = C=CCCC[C@](C)(N)C(=O)O; βAla = NCCC(=O)O
So I've got a bunch of molecules here, and I need their EPSA values.
One number for each entry, in A^2.

Consider the following illustrative entries.
| Molecule | EPSA (A^2) |
| --- | --- |
| CC(=O)N[C@@H](CC(C)C)C(=O)N[C@H](C(=O)N[C@@H](Cc1ccccc1)C(=O)NC(C)(C)C(=O)N[C@@H](CCC(=O)O)C(=O)N[C@@H](Cc1ccc(O)cc1)C(=O)N[C@H](Cc1c[nH]c2ccccc12)C(=O)N[C@@H](C)C(=O)N[C@@H](CCC(N)=O)C(=O)N[C@@H](CC1CCC1)C(=O)NC(C)(C)C(=O)N[C@@H](CO)C(=O)N[C@@H](C)C(=O)N[C@@H](C)C(N)=O)[C@@H](C)O [MP-254] | 188 |
| CC(=O)N[C@@H](CCCCN=[N+]=[N-])C(=O)NCCC(=O)N[C@@H](CC(C)C)C(=O)N[C@H](C(=O)N[C@@H](Cc1ccccc1)C(=O)N[C@]1(C)CCCCCCC=CCCC[C@@](C)(C(=O)N[C@@H](CO)C(=O)N[C@@H](C)C(=O)N[C@@H](C)C(N)=O)NC(=O)[C@H](CCC(N)=O)NC(=O)[C@H](Cc2ccc(O)cc2)NC(=O)[C@H](Cc2c[nH]c3ccccc23)NC(=O)[C@H](CC2CCC2)NC(=O)[C@H](CCC(=O)O)NC(=O)[C@H](C)NC1=O)[C@@H](C)O [MP-205] (Ac-[Lys(N3)][βAla]LTF[R8]AE[Cba]WYQ[S5]SAA-NH2; staple 6-13) | 198 |
| CC(=O)N[C@@H](CC(C)C)C(=O)N[C@H](C(=O)N[C@@H](Cc1ccccc1)C(=O)NC(C)(C)C(=O)N[C@@H](CCC(=O)O)C(=O)N[C@@H](Cc1ccc(O)cc1)C(=O)N[C@H](Cc1c[nH]c2ccccc12)C(=O)N[C@@H](CCC(N)=O)C(=O)N[C@@H](CC(C)C)C(=O)N[C@@H](CC1CCC1)C(=O)NC(C)(C)C(=O)N[C@@H](CO)C(=O)N[C@@H](C)C(=O)N[C@@H](C)C(N)=O)[C@@H](C)O [MP-256] | 185 |
| CC(=O)N[C@@H](CCCNC(=N)N)C(=O)NCCCCCC(=O)N[C@@H](CC(C)C)C(=O)N[C@H](C(=O)N[C@@H](Cc1ccccc1)C(=O)N[C@]1(C)CCCCCCC=CCCC[C@@](C)(C(=O)N[C@@H](CO)C(=O)N[C@@H](C)C(=O)N[C@@H](C)C(N)=O)NC(=O)[C@H](CC2CCC2)NC(=O)[C@H](CCC(N)=O)NC(=O)[C@H](C)NC(=O)[C@H](Cc2c[nH]c3ccccc23)NC(=O)[C@H](Cc2ccc(O)cc2)NC(=O)[C@H](CCC(=O)O)NC1=O)[C@@H](C)O [MP-4001] | 207 |

Now for another entry.
Recorded EPSA of CC(=O)N[C@@H](CCCCN=[N+]=[N-])C(=O)NCCC(=O)N[C@@H](CC(C)C)C(=O)N[C@H](C(=O)N[C@@H](Cc1ccccc1)C(=O)N[C@]1(C)CCCCCCC=CCCC[C@@](C)(C(=O)N[C@@H](CO)C(=O)N[C@@H](C)C(=O)N[C@@H](C)C(N)=O)NC(=O)[C@H](CC2CCC2)NC(=O)[C@H](C)NC(=O)[C@H](CCC(N)=O)NC(=O)[C@H](Cc2c[nH]c3ccccc23)NC(=O)[C@H](Cc2ccc(O)cc2)NC(=O)[C@H](CCC(=O)O)NC1=O)[C@@H](C)O [MP-4203] (Ac-[Lys(N3)][βAla]LTF[R8]EYWQA[Cba][S5]SAA-NH2; staple 6-13) , please. 190

###

Assay: Lactate dehydrogenase (LDH) release assay
Type: cell-based
Settings: 10% FBS 16Hr; read-out: LDH: Cytotoxicity assay: EC50
pEC50: −log10 of the molar value.
Readout Name: pEC50

Recorded pEC50 of CC(=O)N[C@@H](CCCCN=[N+]=[N-])C(=O)NCCC(=O)N[C@@H](CC(C)C)C(=O)N[C@H](C(=O)N[C@@H](Cc1ccccc1)C(=O)N[C@]1(C)CCCCCCn2cc(nn2)CCC[C@@](C)(C(=O)N[C@@H](CO)C(=O)N[C@@H](C)C(=O)N[C@@H](C)C(N)=O)NC(=O)[C@H](CC2CCC2)NC(=O)[C@H](CCC(N)=O)NC(=O)[C@H](C)NC(=O)[C@H](Cc2c[nH]c3ccccc23)NC(=O)[C@H](Cc2ccc(O)cc2)NC(=O)[C@H](CCC(=O)O)NC1=O)[C@@H](C)O [MP-707] , please. < 4.29

###

Assay: Lactate dehydrogenase (LDH) release assay
Format: cell-based
Conditions: 4 hours, 0% serum; read-out: LDH Cytotoxicity assay EC50
Positions of bridges follow the written chain, without caps; N, C: chain ends. Non-standard residues stand in square brackets, D forms with d. Residues, ends and D or L forms follow the SMILES beside them. dPhe(4-CF3) = N[C@H](Cc1ccc(C(F)(F)F)cc1)C(=O)O; dTrp(6-F) = N[C@H](Cc1c[nH]c2cc(F)ccc12)C(=O)O; R5 = C=CCCC[C@@](C)(N)C(=O)O
Readout Name: EC50

Recorded EC50 of CC(=O)N[C@@H](C(=O)N[C@H](C)C(=O)N[C@H](Cc1c[nH]c2cc(F)ccc12)C(=O)N[C@H](Cc1ccc(O)cc1)C(=O)N[C@H](C)C(=O)N[C@]1(C)CCCC=CCCC[C@](C)(C(=O)N[C@H](CC(C)C)C(=O)N[C@H](CO)C(N)=O)NC(=O)[C@@H](CCC(N)=O)NC(=O)[C@@H](CCC(=O)O)NC(=O)[C@@H](Cc2ccc(C(F)(F)F)cc2)NC1=O)[C@H](C)O [MP-797] (Ac-[dT][dA][dTrp(6-F)][dY][dA][R5][dPhe(4-CF3)][dE][dQ][R5][dL][dS]-NH2; staple 6-10) , please. > 50 µM
